FYI, the data here is from paper PMC12196486.

- Experiment summary: in vitro
- Details: dog
Readout name: CC50 at 72 h

Input: Look up CC50 at 72 h for this compound: CC(N)C12CC3CC(CC(C3)C1)C2 (stereo not shown) [Rimantadine, reference compound]
Output: 160 µg/mL

====

Quick reference: CC50 at 72 h of the listed items.
- Experiment summary: Cytotoxicity in vitro, MTT test on MDCK cell culture
- Details: dog
A number alone suffices; assume µg/mL.

Here is how some compounds turned out for CC50 at 72 h.
> print(dat)
                                  compound  test.result
1                   CCCN1CCC(O)(C(=O)O)CC1         9500
2  O=C(OC1(C(=O)O)CCN(CCc2ccccc2)CC1)C1CC1          160
3   O=C(OC1(C(=O)O)CCN(Cc2ccccc2)CC1)C1CC1         3700

Input: Look up CC50 at 72 h for this compound: O=C(ON=C1CCN(Cc2ccccc2)CC1)c1c(F)cccc1F
Output: 130

Input: Look up CC50 at 72 h for this compound: O=C(OC1CCN(Cc2ccccc2)CC1)c1ccc(C(F)(F)F)cc1
Output: 70

Input: Look up CC50 at 72 h for this compound: CCOC(=O)C1=C[C@@H](OC(CC)CC)[C@H](NC(C)=O)[C@@H](N)C1 [Tamiflu, oseltamivir, reference compound]
Output: 660
